Recorded measurements of Ki, one per entry
- SYSTEM NAME: Human CatS (Homo sapiens)
- Construct: made in house; host or cells: Sf9 insect cells (baculovirus vector pFB+HT)
- Sequence (P25774 115-331): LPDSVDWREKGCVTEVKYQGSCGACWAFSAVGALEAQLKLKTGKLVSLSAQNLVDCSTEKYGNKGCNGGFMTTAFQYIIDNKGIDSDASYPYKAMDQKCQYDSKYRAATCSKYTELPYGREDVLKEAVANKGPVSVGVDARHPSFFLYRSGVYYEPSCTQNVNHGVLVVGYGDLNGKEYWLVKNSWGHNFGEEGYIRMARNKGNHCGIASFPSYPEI
- PROTOCOL: CatS inhibition of hydrolysis of fluorescent substrate Z-Val-Val-Arg-AFC
- Assay type: biochemical
- RUN PARAMETERS: apparent Ki, Morrison equation fit of initial rates; 10 μM Z-Val-Val-Arg-AFC, pH 5.0, 1.5 nM CatS; read-out: CatS Ki^app
API: value field is a number in µM; no unit string.

* CS(=O)(=O)N1CCc2c(c(-c3ccc(Cl)c(-c4cccc(C(=O)NCc5ncco5)c4)c3)nn2CCCN2CCCC2)C1 | 0.24
* CN(C)S(=O)(=O)c1cccc2c1N(CCNC(=O)c1cccc(-c3cc(-c4nn(CCCN5CCCC5)c5c4CN(S(C)(=O)=O)CC5)ccc3Cl)c1)CC2 | 0.0494
* COc1ccc(NCCNC(=O)c2cccc(-c3cc(-c4nn(CCCN5CCCC5)c5c4CN(S(C)(=O)=O)CC5)ccc3Cl)c2)cc1 | 0.085
* CS(=O)(=O)N1CCc2c(c(-c3ccc(Cl)c(-c4cccc(C(=O)NCc5nccs5)c4)c3)nn2CCCN2CCCC2)C1 | 0.269
* CN(C)S(=O)(=O)c1ccc2c(c1)N(CCNC(=O)c1cccc(-c3cc(-c4nn(CCCN5CCC(O)C5)c5c4CNCC5)ccc3Cl)c1)CC2 (stereo not shown) | 0.51

For CC(=O)N1CCc2c(c(-c3ccc(Cl)c(-c4cccc(C(=O)NC(C)c5nc6cc(C)ccc6[nH]5)c4)c3)nn2CCCN2CCCC2)C1 (stereo not shown) , what is its reported Ki?
0.037

# repeat for `CS(=O)(=O)N1CCc2c(c(-c3ccc(Cl)c(-c4cccc(C(=O)NCCNc5cccnc5)c4)c3)nn2CCCN2CCCC2)C1`
0.876

* * *

- SYSTEM NAME: Human CatS (Homo sapiens)
- Construct: made in house; host or cells: Sf9 insect cells (baculovirus vector pFB+HT)
- PROTOCOL: CatS inhibition of hydrolysis of fluorescent substrate Z-Val-Val-Arg-AFC
- Type: biochemical
- RUN PARAMETERS: apparent Ki, Morrison equation fit of initial rates; 10 μM Z-Val-Val-Arg-AFC, pH 5.0, 1.5 nM CatS; read-out: CatS Ki^app
MEASURED PARAMETER: pKi
In textbook form, pKi equals minus log to base ten of the concentration in mol/L.

Would you please look over these solved cases?
- COc1ccc(NC(=O)CNC(=O)c2cccc(-c3cc(-c4nn(CCCN5CCCC5)c5c4CN(S(C)(=O)=O)CC5)ccc3Cl)c2)cc1 [Example 26]: 6.15
- COc1ccc(NCCNC(=O)c2cccc(-c3cc(-c4nn(CCCN5CCC(O)C5)c5c4CNCC5)ccc3Cl)c2)cc1 (stereo not drawn) [Example 44]: 7.52
- CS(=O)(=O)N1CCc2c(c(-c3ccc(Cl)c(-c4cccc(C(=O)NCc5ncco5)c4)c3)nn2CCCN2CCC(O)C2)C1 (stereo not drawn) [Example 29]: 6.32
- Cc1ccc2[nH]c(C(C)NC(=O)c3cccc(-c4cc(-c5nn(CCCN6CCCC6)c6c5CN(S(C)(=O)=O)CC6)ccc4Cl)c3)nc2c1 (stereo not drawn) [Example 16]: 7.62
- CS(=O)(=O)N1CCc2c(c(-c3ccc(Cl)c(-c4cccc(C(=O)NCc5nc6ccccc6s5)c4)c3)nn2CCCN2CCC(N3CCCC3=O)CC2)C1 [Example 34]: 7.14

API: the following record is the query input.
For CS(=O)(=O)N1CCc2c(c(-c3ccc(Cl)c(-c4cccc(C(=O)NCc5nc6ccccc6s5)c4)c3)nn2CCCN2CCC(O)C2)C1 (stereo not drawn) [Example 30] , what is its reported pKi?
6.49

src = patent US20080207683A1
